Hello, the source for this data is ChEMBL document CHEMBL3868617, in case you need it.

Assign log10(IC50) to each entry below.
# System tested: Prostaglandin G/H synthase 1 (Homo sapiens, UniProt P23219)
# Sequence (P23219 whole entry): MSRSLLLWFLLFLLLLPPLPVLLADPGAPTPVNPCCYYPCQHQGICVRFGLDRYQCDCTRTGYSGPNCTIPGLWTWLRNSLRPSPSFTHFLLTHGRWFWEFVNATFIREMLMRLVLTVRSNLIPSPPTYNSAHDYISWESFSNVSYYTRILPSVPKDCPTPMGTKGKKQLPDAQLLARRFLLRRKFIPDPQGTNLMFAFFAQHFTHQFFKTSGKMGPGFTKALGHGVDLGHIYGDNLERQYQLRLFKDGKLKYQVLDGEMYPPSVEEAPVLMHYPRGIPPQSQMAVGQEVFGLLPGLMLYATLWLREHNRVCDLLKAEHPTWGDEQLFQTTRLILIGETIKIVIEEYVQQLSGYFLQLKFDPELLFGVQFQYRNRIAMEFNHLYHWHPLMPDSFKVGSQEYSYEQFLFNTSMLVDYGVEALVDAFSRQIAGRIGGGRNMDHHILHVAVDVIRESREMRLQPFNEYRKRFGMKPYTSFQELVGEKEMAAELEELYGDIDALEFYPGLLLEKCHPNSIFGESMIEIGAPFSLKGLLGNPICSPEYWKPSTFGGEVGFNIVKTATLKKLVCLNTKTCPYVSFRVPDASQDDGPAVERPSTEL
# Assay explanation: Inhibition of COX-1 (unknown origin) using arachidonic acid as substrate preincubated for 2 mins followed by substrate addition in presence of TMPD by spectrophotometric analysis
# Condition: read-out: pIC50 (converted)
Recall that a logarithmic scale is used here: each number is log10 of IC50 in µM.

# `Cc1cc(C)c2c(OCCCC(=O)N3CCN(c4cccc(Cl)c4)CC3)nsc2n1` with Prostaglandin G/H synthase 1 (Homo sapiens, UniProt P23219): log10(IC50) is 2.58

# CCC(C(=O)N1CCN(c2ccccc2)CC1)n1sc2nc(C)cc(C)c2c1=O (configuration not stated) with Prostaglandin G/H synthase 1 (Homo sapiens, UniProt P23219): log10(IC50) is 2.14

# `O=C(CCn1sc2ccccc2c1=O)N1CCN(c2cccc(Cl)c2)CC1` with Prostaglandin G/H synthase 1 (Homo sapiens, UniProt P23219): log10(IC50) is 2.48

# `Cc1cc(C)c2c(OCCCC(=O)N3CCN(c4ccccc4)CC3)nsc2n1` with Prostaglandin G/H synthase 1 (Homo sapiens, UniProt P23219): log10(IC50) is 3.19

# `Cc1cc(C)c2c(=O)n(CN3CCN(c4ccccc4F)CC3)sc2n1` with Prostaglandin G/H synthase 1 (Homo sapiens, UniProt P23219): log10(IC50) is 2.15

----------
# System tested: Prostaglandin G/H synthase 2 (Homo sapiens)
# Assay explanation: Inhibition of COX-2 (unknown origin) using arachidonic acid as substrate preincubated for 2 mins followed by substrate addition in presence of TMPD by spectrophotometric analysis relative to control
# Condition: read-out: pIC50 (converted)
Assay endpoint: log10 of IC50 (log10 of the value in µM)
Recall that a logarithmic scale is used here: each number is log10 of IC50 in µM.

Please fill in: log10 of IC50 reported for `Cc1cc(C)c2c(=O)n(CN3CCN(c4ccccc4F)CC3)sc2n1` = 3.10

Please fill in: log10 of IC50 reported for `Cc1cc(C)c2c(OCCCC(=O)N3CCN(c4cccc(Cl)c4)CC3)nsc2n1` = 3.66

Please fill in: log10 of IC50 reported for `COc1cc2c(cc1OC)CN(C(=O)CCn1sc3nc(C)cc(C)c3c1=O)CC2` = 2.46

Please fill in: log10 of IC50 reported for `Cc1cc(C)c2c(OCCCC(=O)O)nsc2n1` = 2.39

Please fill in: log10 of IC50 reported for `Cc1cc(C)c2c(=O)n(CN(C)CCNc3ccccc3)sc2n1` = 3.72

----------
# System tested: Prostaglandin G/H synthase 2 (Homo sapiens)
# Sequence (P35354 whole entry): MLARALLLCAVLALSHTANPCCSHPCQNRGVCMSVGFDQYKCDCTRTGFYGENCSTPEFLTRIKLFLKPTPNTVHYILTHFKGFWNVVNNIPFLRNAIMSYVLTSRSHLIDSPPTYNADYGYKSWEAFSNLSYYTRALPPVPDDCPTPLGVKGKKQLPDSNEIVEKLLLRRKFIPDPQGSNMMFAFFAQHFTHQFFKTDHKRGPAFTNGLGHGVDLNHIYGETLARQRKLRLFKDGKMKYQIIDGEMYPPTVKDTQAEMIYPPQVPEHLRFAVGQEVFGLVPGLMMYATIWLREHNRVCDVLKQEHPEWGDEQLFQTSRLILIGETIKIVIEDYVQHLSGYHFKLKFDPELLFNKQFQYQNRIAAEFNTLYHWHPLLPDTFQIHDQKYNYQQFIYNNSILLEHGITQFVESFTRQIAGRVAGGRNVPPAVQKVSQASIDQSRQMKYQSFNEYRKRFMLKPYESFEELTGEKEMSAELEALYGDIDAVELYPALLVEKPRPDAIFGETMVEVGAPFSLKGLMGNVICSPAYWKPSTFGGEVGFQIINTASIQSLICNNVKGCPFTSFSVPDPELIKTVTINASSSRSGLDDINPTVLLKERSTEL
# Assay explanation: Inhibition of COX-2 (unknown origin) using arachidonic acid as substrate preincubated for 2 mins followed by substrate addition in presence of TMPD by spectrophotometric analysis relative to control
# Condition: read-out: IC50
Assay endpoint: IC50 (µM)
Output spec: scalar in µM, unitless text.

Please fill in: IC50 reported for `O=C(CCn1sc2ccccc2c1=O)N1CCN(c2cccc(Cl)c2)CC1` = 130

Please fill in: IC50 reported for `Cc1cc(C)c2c(=O)n(CCC(=O)N3CCN(c4cccc(Cl)c4)CC3)sc2n1` = 388

Please fill in: IC50 reported for `Cc1cc(C)c2c(=O)n(CN(C)CCNc3ccccc3)sc2n1` = 494

Please fill in: IC50 reported for `Cc1cc(C)c2c(=O)n(CC(=O)N3CCN(c4cccc(Cl)c4)CC3)sc2n1` = 605

Please fill in: IC50 reported for `COc1cc2c(cc1OC)CN(C(=O)CCn1sc3nc(C)cc(C)c3c1=O)CC2` = 303

Please fill in: IC50 reported for `Cc1cc(C)c2c(=O)n(CN3CCN(C4CCCCC4)CC3)sc2n1` = 359

Please fill in: IC50 reported for `Cc1cc(C)c2c(=O)n(CCC(=O)N3CCN(c4ccccc4)CC3)sc2n1` = 368

Please fill in: IC50 reported for `Cc1cc(C)c2c(=O)n(CCCC(=O)N3CCN(c4ccccc4)CC3)sc2n1` = 459

Please fill in: IC50 reported for `Cc1cc(C)c2c(=O)n(CCCC(=O)O)sc2n1` = 302

Please fill in: IC50 reported for CCC(C(=O)N1CCN(c2ccccc2)CC1)n1sc2nc(C)cc(C)c2c1=O (configuration not stated) = 344

Please fill in: IC50 reported for Cc1cc(C)c2c(OC(C)C(=O)O)nsc2n1 (configuration not stated) = 327

Please fill in: IC50 reported for `Cc1cc(C)c2c(OCCCC(=O)O)nsc2n1` = 269

----------
# System tested: Prostaglandin G/H synthase 1 (Homo sapiens, UniProt P23219)
# Assay explanation: Inhibition of COX-1 (unknown origin) using arachidonic acid as substrate preincubated for 2 mins followed by substrate addition in presence of TMPD by spectrophotometric analysis
# Condition: read-out: IC50
Assay endpoint: IC50 (µM)
Output spec: scalar in µM, unitless text.

Please fill in: IC50 reported for `Cc1cc(C)c2c(=O)n(CCCC(=O)N3CCN(c4ccccc4)CC3)sc2n1` = 349

Please fill in: IC50 reported for `Cc1cc(C)c2c(OCCCC(=O)O)nsc2n1` = 248

Please fill in: IC50 reported for `Cc1cc(C)c2c(=O)n(CN3CCN(c4ccccc4F)CC3)sc2n1` = 156

Please fill in: IC50 reported for `Cc1cc(C)c2c(=O)n(CCC(=O)N3CCN(c4cccc(Cl)c4)CC3)sc2n1` = 242
